Experiment: in vivo
Details: both, rhesus, Macaca mulatta, in vivo, po, 5 mg/kg
From the text: Animals included Macaca mulatta of 7 to 20 kg weight, mixed gender, 12 to 19 years of age (n = 5 to 7 per group). […] Commercially prepared monkey chow was distributed twice per day along with daily food enrichment, and water was available ad libitum. Monkeys were observed daily for food consumption and overall well-being. […] Further samples were collected without the inhibitor for DPP-4 analysis to permit quantification of DPP-4 inhibition. […]
RECORDED_ENDPOINT: Cmax

N[C@@H](CC(=O)N1CCn2c(nnc2C(F)(F)F)C1)Cc1cc(F)c(F)cc1F	768 nM

---

Test: in vivo
Details: both, rhesus monkey, in vivo, po, 100 mg/kg
Text: Animals included Macaca mulatta of 7 to 20 kg weight, mixed gender, 12 to 19 years of age (n = 5 to 7 per group). […] Commercially prepared monkey chow was distributed twice per day along with daily food enrichment, and water was available ad libitum. Monkeys were observed daily for food consumption and overall well-being. […] Further samples were collected without the inhibitor for DPP-4 analysis to permit quantification of DPP-4 inhibition. […]
RECORDED_ENDPOINT: Tmax

N[C@@H](CC(=O)N1CCn2c(nnc2C(F)(F)F)C1)Cc1cc(F)c(F)cc1F	2 to 8 h
